Read-out: Interleukin-8 (IL8), CXCL8 (gene 3576)
Experiment: BSK_hDFCGF_IL8: BioMAP Diversity Plus: hDFCGF Assay for Interleukin-8 (IL8) Biomarker Activity (AID 2283058)
Conditions: primary human foreskin fibroblasts; actives raise or lower the signal
Procedure: BSK_hDFCGF is a cell-based, multiplexed-readout assay that uses foreskin fibroblast, a human skin primary cell, with measurements taken at 24 hours after chemical dosing in a 96-well plate.BSK_hDFCGF_IL8 is an assay component measured in the BSK_hDFCGF assay. It measures IL-8 antibody related to regulation of gene expression using ELISA technology.Data from the assay component BSK_hDFCGF_IL8 was analyzed into 1 assay endpoint. […]
Activity calls are given as the source filed them. Rule for the calls: active = hit-call score of the fitted dose curve at least 0.9, where 1 is the maximum; inactive = score below 0.9.
MEASURED ATTRIBUTE: AC50

# count of solved cases: 8
> print(dat)
                                   molecule                 experimental.value
1  O=S1OCC2C(CO1)C1(Cl)C(Cl)=C(Cl)C2(Cl)C1(Cl)Cl (stereo unspecified)                   33.8 µM (active)
2  CCc1ccc(C(=O)NN(C(=O)c2cc(C)cc(C)c2)C(C)(C)C)cc1                           inactive
3  CC(C)(C)C(O)C(Oc1ccc(Cl)cc1)n1cncn1 (stereo unspecified)                           inactive
4              Oc1cc(Cl)ccc1Oc1ccc(Cl)cc1Cl  30 µM (active) [middle of 4 runs]
5  CCC(C)(C)C(=O)OC1=C(c2ccc(Cl)cc2Cl)C(=O)OC12CCCCC2                     11 µM (active)
6           O=C1c2ccccc2C(=O)N1SC(Cl)(Cl)Cl                           inactive
7  O=C(NC(=O)c1c(F)cccc1F)Nc1ccc(OC(F)(F)C(F)OC(F)(F)F)c(Cl)c1 (stereo unspecified)                           inactive
8  CC1(C)C(C=C(Cl)Cl)C1C(=O)OC(C#N)c1ccc(F)c(Oc2ccccc2)c1 (stereo unspecified)                           inactive

So, "O=[N+]([O-])/N=C1\NCCN1Cc1ccc(Cl)nc1" ? Its AC50 was inactive

Measured AC50, "O=[N+]([O-])c1c(Cl)c(Cl)c(Cl)c(Cl)c1Cl" : inactive

Lab note: measured AC50 of "C[C@H]1[C@H](c2ccc(Cl)cc2)SC(=O)N1C(=O)NC1CCCCC1" was inactive
